measured_target: human Aurora A (Homo sapiens)
Construct: Histidine tag (N); host or cells: Sf9 insect cells (baculovirus)
Sequence (O14965 1-403): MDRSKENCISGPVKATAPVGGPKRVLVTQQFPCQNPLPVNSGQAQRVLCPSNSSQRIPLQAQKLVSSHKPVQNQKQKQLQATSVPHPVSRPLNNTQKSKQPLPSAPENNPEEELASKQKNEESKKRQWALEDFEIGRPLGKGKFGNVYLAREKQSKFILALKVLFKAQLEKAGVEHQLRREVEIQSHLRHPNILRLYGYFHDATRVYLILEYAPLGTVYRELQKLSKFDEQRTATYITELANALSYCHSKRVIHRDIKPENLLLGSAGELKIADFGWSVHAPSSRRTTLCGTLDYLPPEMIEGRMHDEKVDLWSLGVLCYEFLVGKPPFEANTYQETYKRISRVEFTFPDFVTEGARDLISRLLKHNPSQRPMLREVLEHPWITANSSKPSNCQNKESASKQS
method_description: Aurora A kinase assay (DELFIA enzyme inhibition)
Type: biochemical
measurement_parameters: read-out: Aurora A IC50
property: IC50

{"columns": ["structure_smiles", "result"],
 "data": [
  ["COc1ccc(-c2oc(-c3cccc4[nH]ccc34)nc2C(N)=O)cc1", "< 100 µM"],
  ["NC(=O)c1nc(-c2c(Cl)cccc2Cl)oc1-c1ccc(OCCN2CCCCC2)cc1", "< 10 µM"],
  ["COc1ccc(-c2nc(-c3c(F)cccc3Cl)[nH]c2C(N)=O)cc1", "< 100 µM"],
  ["NC(=O)c1nc(-c2c(F)cccc2F)oc1Nc1ccc(OCCN2CCOCC2)cc1", "< 10 µM"]
]}

###

measured_target: human Aurora A (Homo sapiens, UniProt O14965)
Construct: Histidine tag (N); host or cells: Sf9 insect cells (baculovirus)
method_description: Aurora A kinase assay (DELFIA enzyme inhibition)
Format: biochemical
measurement_parameters: read-out: Aurora A IC50
pIC50: −log10 of the molar value.
Consider the following molecules and their measured pIC50 readings.

{"columns": ["molecule", "measured_target", "pIC50"],
 "data": [
  ["CCN(CCO)CCOc1ccc(-c2oc(-c3c(F)cccc3F)nc2C(N)=O)cc1 [Example S-19]", "human Aurora A (Homo sapiens, UniProt O14965)", "> 5.00"],
  ["COc1ccc(-c2oc(Nc3ccccc3C)nc2C(N)=O)cc1 [Example R-5]", "human Aurora A (Homo sapiens, UniProt O14965)", "> 5.00"],
  ["CN1CCN(c2ccc(-c3oc(-c4c(F)cccc4F)nc3C(N)=O)cn2)CC1 [Example H-2]", "human Aurora A (Homo sapiens, UniProt O14965)", "> 5.00"],
  ["NC(=O)c1nc(-c2c(F)cccc2F)oc1-c1ccc(OCCN2CCC(O)CC2)cc1 [Example S-4]", "human Aurora A (Homo sapiens, UniProt O14965)", "> 5.00"],
  ["NC(=O)c1nc(-c2ccccc2F)oc1-c1ccc(OCCN2CCOCC2)cc1 [Example F-27]", "human Aurora A (Homo sapiens, UniProt O14965)", "> 5.00"],
  ["NC(=O)c1nc(-c2c(F)cccc2F)oc1-c1ccc(OCC(O)CN2CCCCC2)cc1 (stereo not shown) [Example T-1]", "human Aurora A (Homo sapiens, UniProt O14965)", "> 5.00"],
  ["NC(=O)c1nc(-c2c(F)cccc2F)oc1-c1cccc2ccccc12 [Example F-35]", "human Aurora A (Homo sapiens, UniProt O14965)", "> 4.00"],
  ["NC(=O)c1nc(-c2c(F)cccc2F)oc1Nc1ccc(C(=O)NC[C@@H]2CCCNC2)cc1 [Example Q-55]", "human Aurora A (Homo sapiens, UniProt O14965)", "> 5.00"],
  ["NC(=O)c1nc(-c2c(F)cccc2F)oc1Nc1ccc(S(=O)(=O)N2CCCCC2)cc1 [Example Q-28]", "human Aurora A (Homo sapiens, UniProt O14965)", "> 4.00"],
  ["NCC1CN(C(=O)c2ccc(Nc3oc(-c4c(F)cccc4F)nc3C(N)=O)cc2)CCO1 (stereo not shown) [Example U-23]", "human Aurora A (Homo sapiens, UniProt O14965)", "> 5.00"],
  ["NC(=O)c1nc(-c2c(F)cccc2Cl)oc1-c1ccc(OCCN2CCCCC2)cc1 [Example F-24]", "human Aurora A (Homo sapiens, UniProt O14965)", "> 5.00"],
  ["COc1ccc(-c2oc(-c3c(F)cccc3F)nc2C(N)=O)cc1 [Example E-2]", "human Aurora A (Homo sapiens, UniProt O14965)", "> 4.00"],
  ["COc1ccc(-c2oc(Nc3cccc(OC)c3)nc2C(N)=O)cc1 [Example R-3]", "human Aurora A (Homo sapiens, UniProt O14965)", "> 4.00"],
  ["NC(=O)c1nc(-c2c(F)cccc2F)oc1Nc1ccc(C(=O)N2CCCC(O)C2)cc1 (stereo not shown) [Example U-15]", "human Aurora A (Homo sapiens, UniProt O14965)", "> 5.00"],
  ["NC(=O)c1nc(-c2c(F)cccc2F)oc1Nc1ccc(C(=O)N[C@H]2CCNC2)cc1 [Example U-7]", "human Aurora A (Homo sapiens, UniProt O14965)", "> 5.00"],
  ["NC(=O)c1nc(-c2c(F)cccc2F)oc1Nc1ccc(C(=O)NCCO)cc1 [Example U-16]", "human Aurora A (Homo sapiens, UniProt O14965)", "> 5.00"],
  ["CN1CCN(C(=O)c2ccc(Nc3oc(-c4c(F)cccc4F)nc3C(N)=O)cc2)CC1 [Example Q-14]", "human Aurora A (Homo sapiens, UniProt O14965)", "> 5.00"],
  ["NC(=O)c1nc(-c2c(F)cccc2F)oc1-c1ccc(OCCN2CCC(CO)CC2)cc1 [Example S-18]", "human Aurora A (Homo sapiens, UniProt O14965)", "> 5.00"],
  ["NC(=O)c1nc(-c2c(F)cccc2F)oc1Nc1ccc(-c2cc(CO)on2)cc1 [Example Q-33]", "human Aurora A (Homo sapiens, UniProt O14965)", "> 5.00"],
  ["CNS(=O)(=O)c1ccc(Nc2oc(-c3c(F)cccc3F)nc2C(N)=O)cc1 [Example Q-27]", "human Aurora A (Homo sapiens, UniProt O14965)", "> 5.00"],
  ["COc1ccc(-c2oc(-c3cccc(C(F)(F)F)c3)nc2C(N)=O)cc1 [Example N-8]", "human Aurora A (Homo sapiens, UniProt O14965)", "> 4.00"],
  ["NC(=O)c1nc(-c2c(F)cccc2F)oc1Nc1ccc(N2CCCCC2)cc1 [Example Q-13]", "human Aurora A (Homo sapiens, UniProt O14965)", "> 4.00"],
  ["NC(=O)c1nc(-c2c(F)cccc2F)oc1Nc1ccc(S(N)(=O)=O)cc1 [Example Q-25]", "human Aurora A (Homo sapiens, UniProt O14965)", "> 5.00"],
  ["COc1ccc(-c2oc(Nc3ccccc3OC)nc2C(N)=O)cc1 [Example R-2]", "human Aurora A (Homo sapiens, UniProt O14965)", "> 5.00"],
  ["COc1ccc(-c2oc(-c3ccccc3F)nc2C(N)=O)cc1 [Example M-3]", "human Aurora A (Homo sapiens, UniProt O14965)", "> 4.00"]
]}
